B1: Azoarcus group I ribozyme (parent)
chain: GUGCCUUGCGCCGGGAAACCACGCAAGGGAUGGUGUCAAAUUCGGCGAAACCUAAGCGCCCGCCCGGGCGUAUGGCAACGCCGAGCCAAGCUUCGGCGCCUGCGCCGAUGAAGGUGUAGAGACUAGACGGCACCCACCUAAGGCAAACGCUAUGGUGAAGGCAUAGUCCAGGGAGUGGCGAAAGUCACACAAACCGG

# Variants of: B1
# assay: reverse-splicing fitness (ratio to wild type); higher = more active; in vitro selection; Mg2+ level not given
The recorded reverse-splicing fitness of each item maps onto one of these classes: lower segment: < 0.008; middle segment: ≥ 0.008 and < 0.01; upper segment: ≥ 0.01

Which reverse-splicing fitness band matches A111C A120C A145U C150A C169U U176G ?
lower segment

Class (by measured reverse-splicing fitness) for A111U A120G C169G U176G
lower segment

Each recorded value in this set is attributed to the RNAGym collection of RNA variant scans (doi:10.1093/molbev/msab373).
